Measurement Name: MIC (µg/mL)
Reply with just the number (in µg/mL).

Ask | Give the observed MIC of O=C1c2cc(Cl)cc(Cl)c2CCC1Br (stereo not shown) for Candida albicans.
Reply | 1.56

Ask | Name the recorded MIC of O=C1c2cc(F)ccc2CCC1Br (stereo not shown) , assay system Candida albicans.
Reply | 6.25

Ask | Return reported MIC for target or system Candida albicans, item O=C1c2cc(Cl)c(Cl)cc2CCC1Br (stereo not shown) .
Reply | 1.56

###

Assay: Toxicity (LD50) to mice
Conditions: mouse, in vivo, sc, Subcutaneous
Measurement Name: LD50

Ask | Dear colleague, please send me the reported LD50 for O=C1c2cc(Cl)c(Cl)cc2CCC1Br (stereo not shown) when you can.
Reply | > 1500 mg/kg

###

Assay: Toxicity (LD50) to mice
Conditions: mouse, in vivo, Oral
Measurement Name: LD50

Ask | Output LD50 of O=C1c2cc(Cl)c(Cl)cc2CCC1Br (stereo not shown)
Reply | > 1500 mg/kg

###

Test: Toxicity (LD50) to mice
Conditions: mouse, in vivo, ip, Intraperitoneal
Measurement Name: LD50
Include the unit after the number when you answer.

Ask | State its LD50 for this molecule: O=C1c2cc(Cl)c(Cl)cc2CCC1Br (stereo not shown)
Reply | 820 mg/kg
